# TGT: UniProt:P15056
# EXPERIMENT DESCRIPTION: WT B-Raf IC50 assay, time-resolved fluorescence energy transfer
# Type: biochemical
# ASSAY CONDITIONS: Km ATP (2.9 μM ATP); read-out: IC50 (nM) B-Raf^WT Km ATP
Catalogue of IC50 values

STRUCTURE | IC50, nM
COc1cccc(NC(=O)N[C@@H]2[C@H]3Oc4ccc(Oc5ccnc6c5CCC(=O)N6)cc4[C@@H]23)c1Cl | 4.5
O=C1CCc2c(Oc3ccc4c(c3)[C@H]3[C@H](NC(=O)Nc5ccc(Cl)c(C(F)(F)F)c5)[C@H]3O4)ccnc2N1 | 33
O=C1CCc2c(Oc3ccc4c(c3)[C@H]3[C@H](NC(=O)Nc5cc(C(F)(F)F)ccc5F)[C@H]3O4)ccnc2N1 | 19

====

Catalogue of log10 of IC50 values
# TGT: B-Raf (V600E) (Homo sapiens (Human), UniProt P15056, V600E)
# Sequence (P15056 whole entry V600E): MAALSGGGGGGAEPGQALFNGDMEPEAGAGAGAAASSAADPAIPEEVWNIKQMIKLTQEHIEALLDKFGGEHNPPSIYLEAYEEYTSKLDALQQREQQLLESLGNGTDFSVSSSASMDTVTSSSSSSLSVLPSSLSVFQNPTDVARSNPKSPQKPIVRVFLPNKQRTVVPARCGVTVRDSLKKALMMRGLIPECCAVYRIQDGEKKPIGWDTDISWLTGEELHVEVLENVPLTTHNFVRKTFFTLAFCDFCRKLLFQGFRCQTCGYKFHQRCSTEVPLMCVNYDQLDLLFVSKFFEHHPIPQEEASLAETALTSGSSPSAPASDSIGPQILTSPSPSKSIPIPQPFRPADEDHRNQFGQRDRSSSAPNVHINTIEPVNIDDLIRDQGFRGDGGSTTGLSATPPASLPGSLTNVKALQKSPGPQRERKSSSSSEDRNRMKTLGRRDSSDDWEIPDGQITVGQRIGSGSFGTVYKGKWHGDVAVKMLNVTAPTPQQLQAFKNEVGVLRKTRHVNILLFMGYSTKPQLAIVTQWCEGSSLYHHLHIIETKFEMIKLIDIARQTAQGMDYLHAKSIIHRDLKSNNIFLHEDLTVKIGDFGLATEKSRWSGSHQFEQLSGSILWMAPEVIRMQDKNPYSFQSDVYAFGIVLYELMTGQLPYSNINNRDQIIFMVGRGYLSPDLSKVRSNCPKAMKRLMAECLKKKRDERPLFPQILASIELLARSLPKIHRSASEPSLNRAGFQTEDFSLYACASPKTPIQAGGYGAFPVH
# EXPERIMENT DESCRIPTION: Raf IC50 assay, time-resolved fluorescence energy transfer, B-Raf (V600E)
# Type: biochemical
# ASSAY CONDITIONS: 0.1 mM ATP; read-out: IC50 (nM) B_Raf^V600E
ENDPOINT LABEL: log10 of IC50 (log10 of the value in nM)

STRUCTURE | log10 of IC50
Cc1cc(NC(=O)N[C@@H]2[C@H]3Oc4ccc(Oc5ccnc6c5CCC(=O)N6)cc4[C@@H]23)ccc1F | 0.18
O=C1CCc2c(Oc3ccc4c(c3)[C@H]3[C@H](NC(=O)Nc5ccc(F)c(C(F)(F)F)c5)[C@H]3O4)ccnc2N1 | 0.89
O=C1CCc2c(Oc3ccc4c(c3)[C@H]3[C@H](NC(=O)Nc5ccc(C(F)(F)F)cn5)[C@H]3O4)ccnc2N1 | 0.60
CN1CCN(c2ccc(NC(=O)N[C@@H]3[C@H]4Oc5ccc(Oc6ccnc7c6CCC(=O)N7)cc5[C@@H]34)cc2C(F)(F)F)CC1 | 2.26
Nc1cc(Oc2ccc3c(c2)[C@H]2[C@H](NC(=O)Nc4cc(F)c(F)cc4F)[C@H]2O3)ccn1 | 1.26
O=C(Nc1ccc(F)c(C(F)(F)F)c1)N[C@@H]1[C@H]2Oc3ccc(Oc4ncnc5[nH]cnc45)cc3[C@@H]12 | 1.00

====

Catalogue of IC50 values
# TGT: B-Raf (V600E) (Homo sapiens (Human), UniProt P15056, V600E)
# EXPERIMENT DESCRIPTION: Raf IC50 assay, time-resolved fluorescence energy transfer, B-Raf (V600E)
# Type: biochemical
# ASSAY CONDITIONS: 0.1 mM ATP; read-out: IC50 (nM) B_Raf^V600E

COMPOUND | IC50
O=C1CCc2c(Oc3ccc4c(c3)[C@H]3C(NC(=O)NCc5ccc(F)cc5C(F)(F)F)[C@H]3O4)ccnc2N1 (stereo partly shown) [Compound 1.76] | 3.4 nM
O=C1CCc2c(Oc3ccc4c(c3)[C@H]3[C@H](NC(=O)Nc5c(F)cccc5F)[C@H]3O4)ccnc2N1 [Compound 1.44] | 1.3 nM
O=C1CCc2c(Oc3ccc4c(c3)[C@H]3[C@H](NC(=O)Nc5cc(F)cc(C(F)(F)F)c5)[C@H]3O4)ccnc2N1 [Compound 1.11] | 5.5 nM
O=C1NCc2c(Oc3ccc4c(c3)[C@H]3[C@H](NC(=O)Nc5cc(F)c(F)cc5F)[C@H]3O4)ccnc2N1 [Compound 2.5] | 2.3 nM

====

# TGT: B-Raf (V600E) (Homo sapiens (Human), UniProt P15056, V600E)
# EXPERIMENT DESCRIPTION: Raf IC50 assay, time-resolved fluorescence energy transfer, B-Raf (V600E)
# Format: biochemical
# ASSAY CONDITIONS: 0.1 mM ATP; read-out: IC50 (nM) B_Raf^V600E

STRUCTURE | TGT | UNIT NAME | IC50
CCCCCCCCNC(=O)N[C@@H]1[C@H]2Oc3ccc(Oc4ccnc5c4CCC(=O)N5)cc3[C@@H]12 | B-Raf (V600E) (Homo sapiens (Human), UniProt P15056, V600E) | nM | 12
CCCCCCNC(=O)N[C@@H]1[C@H]2Oc3ccc(Oc4ccnc5c4CCC(=O)N5)cc3[C@@H]12 | B-Raf (V600E) (Homo sapiens (Human), UniProt P15056, V600E) | nM | 0.72
O=C1CCc2c(Oc3ccc4c(c3)[C@H]3[C@H](NC(=O)Nc5ccc(F)c(F)c5)[C@H]3O4)ccnc2N1 | B-Raf (V600E) (Homo sapiens (Human), UniProt P15056, V600E) | nM | 1.1
Nc1cc(Oc2ccc3c(c2)[C@H]2[C@H](NC(=O)Nc4ccc(F)cc4F)[C@H]2O3)ccn1 | B-Raf (V600E) (Homo sapiens (Human), UniProt P15056, V600E) | nM | 36
CNC(=O)c1cc(Oc2ccc3c(c2)[C@H]2[C@H](NC(=O)Nc4cccc(C(F)(F)F)c4)[C@H]2O3)ccn1 | B-Raf (V600E) (Homo sapiens (Human), UniProt P15056, V600E) | nM | 26
COc1cc(NC(=O)N[C@@H]2[C@H]3Oc4ccc(Oc5ccnc6c5CCC(=O)N6)cc4[C@@H]23)cc(OC)c1 | B-Raf (V600E) (Homo sapiens (Human), UniProt P15056, V600E) | nM | 1.5
O=C1CCc2c(Oc3ccc4c(c3)[C@H]3[C@H](NC(=O)Nc5ccc(C(F)(F)F)cc5F)[C@H]3O4)ccnc2N1 | B-Raf (V600E) (Homo sapiens (Human), UniProt P15056, V600E) | nM | 13
CNC(=O)c1cc(Oc2ccc3c(c2)[C@H]2[C@H](NC(=O)Nc4cc(F)c(F)cc4F)[C@H]2O3)ccn1 | B-Raf (V600E) (Homo sapiens (Human), UniProt P15056, V600E) | nM | 13
O=C1CCc2c(Oc3ccc4c(c3)[C@H]3[C@H](NC(=O)Nc5ccc(C(F)(F)F)c(F)c5)[C@H]3O4)ccnc2N1 | B-Raf (V600E) (Homo sapiens (Human), UniProt P15056, V600E) | nM | 27
COc1cc(NC(=O)N[C@@H]2[C@H]3Oc4ccc(Oc5ccnc6c5CCC(=O)N6)cc4[C@@H]23)ccn1 | B-Raf (V600E) (Homo sapiens (Human), UniProt P15056, V600E) | nM | 2.2
O=C1CCc2c(Oc3ccc4c(c3)[C@H]3[C@H](NC(=O)NC5CCCCCC5)[C@H]3O4)ccnc2N1 | B-Raf (V600E) (Homo sapiens (Human), UniProt P15056, V600E) | nM | 1.4
O=C1CCc2c(Oc3ccc4c(c3)[C@H]3[C@H](NC(=O)N[C@@H]5CCc6ccccc65)[C@H]3O4)ccnc2N1 | B-Raf (V600E) (Homo sapiens (Human), UniProt P15056, V600E) | nM | 2.4
O=C1CCc2c(Oc3ccc4c(c3)[C@H]3[C@H](NC(=O)Nc5cccc(C(F)(F)F)c5F)[C@H]3O4)ccnc2N1 | B-Raf (V600E) (Homo sapiens (Human), UniProt P15056, V600E) | nM | 4.7
O=C(Nc1ccc(F)cc1F)N[C@@H]1[C@H]2Oc3ccc(Oc4ncnc5[nH]cnc45)cc3[C@@H]12 | B-Raf (V600E) (Homo sapiens (Human), UniProt P15056, V600E) | nM | 24
O=C1CCc2c(Oc3ccc4c(c3)[C@H]3[C@H](NC(=O)N[C@H]5CCc6ccccc65)[C@H]3O4)ccnc2N1 | B-Raf (V600E) (Homo sapiens (Human), UniProt P15056, V600E) | nM | 2.7
O=C1CCc2c(Oc3ccc4c(c3)[C@H]3[C@H](NC(=O)Nc5cc(F)c(F)cc5F)[C@H]3O4)ccnc2N1 | B-Raf (V600E) (Homo sapiens (Human), UniProt P15056, V600E) | nM | 1.2
O=C1CCc2c(Oc3ccc4c(c3)[C@H]3[C@H](NC(=O)Nc5ccc6c(c5)CCC6)[C@H]3O4)ccnc2N1 | B-Raf (V600E) (Homo sapiens (Human), UniProt P15056, V600E) | nM | 2.6
O=C1CCc2c(Oc3ccc4c(c3)[C@H]3[C@H](NC(=O)Nc5c(F)ccc(F)c5F)[C@H]3O4)ccnc2N1 | B-Raf (V600E) (Homo sapiens (Human), UniProt P15056, V600E) | nM | 0.74
O=C1CCc2c(Oc3ccc4c(c3)[C@H]3[C@H](NC(=O)Nc5cc(F)cc(F)c5)[C@H]3O4)ccnc2N1 | B-Raf (V600E) (Homo sapiens (Human), UniProt P15056, V600E) | nM | 1.8
O=C1CCc2c(Oc3ccc4c(c3)[C@H]3[C@H](NC(=O)Nc5ccc(F)c(F)c5F)[C@H]3O4)ccnc2N1 | B-Raf (V600E) (Homo sapiens (Human), UniProt P15056, V600E) | nM | 0.78
COc1ccc(Cl)c(NC(=O)N[C@@H]2[C@H]3Oc4ccc(Oc5ccnc6c5CCC(=O)N6)cc4[C@@H]23)c1 | B-Raf (V600E) (Homo sapiens (Human), UniProt P15056, V600E) | nM | 2.2
O=C1CCc2c(Oc3ccc4c(c3)[C@H]3[C@H](NC(=O)Nc5ccccc5C(F)(F)F)[C@H]3O4)ccnc2N1 | B-Raf (V600E) (Homo sapiens (Human), UniProt P15056, V600E) | nM | 3
O=C1CCc2c(Oc3ccc4c(c3)[C@H]3[C@H](NC(=O)Nc5ccc(OC(F)(F)F)cc5)[C@H]3O4)ccnc2N1 | B-Raf (V600E) (Homo sapiens (Human), UniProt P15056, V600E) | nM | 7.4
O=C1CCc2c(Oc3ccc4c(c3)[C@H]3[C@H](NC(=O)Nc5cc(C(F)(F)F)cc(C(F)(F)F)c5)[C@H]3O4)ccnc2N1 | B-Raf (V600E) (Homo sapiens (Human), UniProt P15056, V600E) | nM | 116
Cc1cccc(Cl)c1NC(=O)N[C@@H]1[C@H]2Oc3ccc(Oc4ccnc5c4CCC(=O)N5)cc3[C@@H]12 | B-Raf (V600E) (Homo sapiens (Human), UniProt P15056, V600E) | nM | 5.1
O=C(Nc1cc(F)c(F)cc1F)N[C@@H]1[C@H]2Oc3ccc(Oc4ccncc4)cc3[C@@H]12 | B-Raf (V600E) (Homo sapiens (Human), UniProt P15056, V600E) | nM | 50
CN1CCC(NC(=O)N[C@@H]2[C@H]3Oc4ccc(Oc5ccnc6c5CCC(=O)N6)cc4[C@@H]23)CC1 | B-Raf (V600E) (Homo sapiens (Human), UniProt P15056, V600E) | nM | 20
